# runDescription: Permeability across apical to basolateral side in human Caco2 cells
# Type: ADME, cell-based
# runConditions: Caco-2, read-out: permeability
recordedMetric: Papp A→B
Write down the value, and be sure its unit follows.

Solved cases below.
1. CCn1nc(-c2cccc3cccnc23)cc1-c1ccc(N)nn1 | 77.7 ×10⁻⁶ cm/s
2. Cn1nc(-c2cccc3ccccc23)cc1C(=O)N1CCC(CO)CC1 | 32.3 ×10⁻⁶ cm/s
3. Cc1[nH]c(-c2cccc3ccccc23)cc1C(=O)N1CCC(CO)CC1 | 17.2 ×10⁻⁶ cm/s

Now turn to the next compound.
Prompt line: Look up Papp A→B for this compound: Cc1nc(-c2cccc3ccccc23)sc1C(=O)N1CCC(CO)CC1
Response line: 32.9 ×10⁻⁶ cm/s

* * *

# runDescription: Drug uptake in Sprague-Dawley rat brain at 30 mg/kg, po measured at 3 hrs post dose by LC/MS-MS analysis
# Type: ADME, organism-based
# runConditions: read-out: Drug uptake
recordedMetric: concentration at 3 h (µM)
# number only, unit µM dropped from output

Prompt line: Look up concentration at 3 h for this compound: CCn1nc(-c2cccc3cccnc23)cc1-c1ccc(N)nn1
Response line: 3.92

* * *

# runDescription: Ratio of drug uptake in Sprague-Dawley rat brain to plasma at 30 mg/kg, po measured at 2 hrs post dose by LC/MS-MS analysis
# Assay type: ADME, organism-based
# runConditions: read-out: BPR
recordedMetric: Kp at 2 h
Answer with a bare number; do not write a unit.

Prompt line: Look up Kp at 2 h for this compound: Cn1nc(-c2cccc3ccccc23)cc1C(=O)N1CCC(CO)CC1
Response line: 0.3

* * *

# assayTarget: 5-hydroxytryptamine receptor 2C (Homo sapiens)
# Sequence (whole entry): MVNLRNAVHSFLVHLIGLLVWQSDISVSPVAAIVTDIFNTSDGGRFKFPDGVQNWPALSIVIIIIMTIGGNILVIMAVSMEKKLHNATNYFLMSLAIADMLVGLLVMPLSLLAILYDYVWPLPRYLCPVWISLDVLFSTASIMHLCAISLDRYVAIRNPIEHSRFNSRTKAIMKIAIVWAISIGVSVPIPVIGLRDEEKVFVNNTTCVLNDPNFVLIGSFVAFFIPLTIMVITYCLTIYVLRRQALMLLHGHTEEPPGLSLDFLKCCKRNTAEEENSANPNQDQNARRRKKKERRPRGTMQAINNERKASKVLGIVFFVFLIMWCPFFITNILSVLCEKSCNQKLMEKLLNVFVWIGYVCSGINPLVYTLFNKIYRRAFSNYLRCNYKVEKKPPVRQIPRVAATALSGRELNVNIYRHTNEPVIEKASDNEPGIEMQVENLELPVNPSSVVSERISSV
# runDescription: Intrinsic activity at recombinant human 5-HT2C receptor expressed in HEK293E cells assessed as induction of intracellular Ca2+ levels after 90 secs by Fluo-4-dye based FLIPR assay relative to serotonin
# Type: functional, cell-based
# runConditions: HEK293
Could you label it yes if measured Intrinsic activity is 0.8 or higher, and no otherwise?

Worked set:
1) Cc1sc(-c2cccc3ccccc23)nc1C(=O)N1CCOCC1 | no
2) Cc1nc(-c2cccc3ccccc23)sc1C(=O)N(C)C | yes
3) Cc1nn(-c2cccc3ccccc23)nc1C(=O)N1CCC(CO)CC1 | yes

Prompt line: Say whether CCn1nc(-c2cccc3ccccc23)cc1-c1cccnn1 shows Intrinsic activity of 0.8 or more.
Response line: yes

Prompt line: # iterate: CCn1nc(-c2cccc3ccccc23)cc1-c1ccnn1C
Response line: no

Prompt line: # iterate: Cn1ccnc1-c1cc(-c2cccc3ccccc23)nn1C
Response line: yes

Prompt line: # iterate: O=C(c1csc(-c2cccc(Cl)c2F)n1)N1CCOCC1
Response line: no

Prompt line: # iterate: Cc1nc(-c2cccc3ccccc23)sc1C(=O)N1CCNCC1
Response line: no

* * *

# runDescription: Permeability of compound at pH 7.4 by PAMPA
# Format: physicochemical
# runConditions: read-out: permeability
recordedMetric: Papp (×10⁻⁶ cm/s)
# number only, unit ×10⁻⁶ cm/s dropped from output

Solved cases below.
1. Cc1nc(-c2cccc3ccccc23)sc1C(=O)N1CCC(CO)CC1 | 73.9
2. Cn1nc(-c2cccc3ccccc23)cc1C(=O)N1CCC(CO)CC1 | 61.3
3. CCn1nc(-c2cccc3cccnc23)cc1-c1ccc(N)nn1 | 88.9

Now turn to the next molecule.
Prompt line: Look up Papp for this molecule: Cc1[nH]c(-c2cccc3ccccc23)cc1C(=O)N1CCC(CO)CC1
Response line: 49.2

* * *

# runDescription: Drug uptake in Sprague-Dawley rat brain at 1 mg/kg, iv measured at 1 hr post dose by LC/MS-MS analysis
recordedMetric: concentration at 1 h (nM)
# number only, unit nM dropped from output

Prompt line: Look up concentration at 1 h for this molecule: Cc1nc(-c2cccc3ccccc23)sc1C(=O)N1CCC(CO)CC1
Response line: 76

* * *

# assayTarget: UniProt:P28223
# Sequence (P28223 whole entry): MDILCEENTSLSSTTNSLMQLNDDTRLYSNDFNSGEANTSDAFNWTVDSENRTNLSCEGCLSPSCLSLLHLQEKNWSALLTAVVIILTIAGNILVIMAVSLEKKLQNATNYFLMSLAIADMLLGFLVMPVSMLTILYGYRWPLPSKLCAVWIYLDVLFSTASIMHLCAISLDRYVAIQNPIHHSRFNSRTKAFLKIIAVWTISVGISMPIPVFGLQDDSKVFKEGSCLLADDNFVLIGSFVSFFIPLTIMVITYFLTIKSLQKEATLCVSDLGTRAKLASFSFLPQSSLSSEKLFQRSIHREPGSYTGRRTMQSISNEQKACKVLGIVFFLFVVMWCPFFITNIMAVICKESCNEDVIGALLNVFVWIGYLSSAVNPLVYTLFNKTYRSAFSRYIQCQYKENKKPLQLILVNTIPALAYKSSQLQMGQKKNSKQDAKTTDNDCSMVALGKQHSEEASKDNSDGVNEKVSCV
# runDescription: Agonist activity at recombinant human 5-HT2A receptor expressed in HEK293E cells assessed as induction of intracellular Ca2+ levels after 90 secs by Fluo-4-dye based FLIPR assay
Listed below: EC50 values for each entry.

Solved cases below.
1. CCn1nc(-c2cccc3ccccc23)cc1-c1ncnn1C | > 10 µM
2. CCn1nc(-c2cccc3ccccc23)cc1-c1ccccn1 | > 5 µM
3. Cc1sc(-c2cccc3ccccc23)nc1C(=O)N1CCOCC1 | > 10 µM

Prompt line: Look up EC50 for this molecule: O=C(c1cnc(-c2cccc(Cl)c2Cl)s1)N1CCOCC1
Response line: > 10 µM

Prompt line: # iterate: O=C(c1csc(-c2cccc(Cl)c2Cl)n1)N1CCC(O)CC1
Response line: > 10 µM

Prompt line: # iterate: Cc1nc(-c2cccc3ccccc23)oc1C(=O)N1CCC(CO)CC1
Response line: > 10 µM

* * *

# runDescription: Protein binding in rat plasma
# Format: ADME, cell-free
# runConditions: read-out: PPB (converted)
recordedMetric: fraction unbound
Answer with a bare number; do not write a unit.

1. CCn1nc(-c2cccc3cccnc23)cc1-c1ccc(N)nn1 | 0.079
2. Cn1nc(-c2cccc3ccccc23)cc1C(=O)N1CCC(CO)CC1 | 0.076
3. Cc1nc(-c2cccc3ccccc23)sc1C(=O)N1CCC(CO)CC1 | 0.004

Prompt line: Look up fraction unbound for this compound: Cc1[nH]c(-c2cccc3ccccc23)cc1C(=O)N1CCC(CO)CC1
Response line: 0.075

* * *

# runDescription: Metabolic stability in rat liver microsomes assessed as parent compound remaining at […] after 10 mins
# Format: ADME, microsome
# runConditions: read-out: Stability
Listed below: remaining at 10 min values for each entry.
# number only, unit % dropped from output

Solved cases below.
1) Cc1cc(-c2cccc3ccccc23)sc1C(=O)N1CCC(CO)CC1 | 20
2) Cc1nc(-c2cccc3ccccc23)sc1C(=O)N(C)Cc1cccnc1 | 4
3) Cc1nc(-c2cccc3ccccc23)sc1C(=O)N1CCOCC1 | 6
4) Cc1nc(-c2cccc3ccccc23)sc1C(=O)N1CCC(CO)CC1 | 24
5) Cc1nc(-c2cccc3ccccc23)sc1C(=O)N1CCc2[nH]cnc2C1 | 15

Now turn to the next compound.
Prompt line: Look up remaining at 10 min for this compound: COCCN(C)C(=O)c1sc(-c2cccc3ccccc23)nc1C
Response line: 7

* * *

# assayTarget: 5-hydroxytryptamine receptor 2C (Homo sapiens, UniProt P28335)
# runDescription: Agonist activity at recombinant human 5-HT2C receptor expressed in HEK293E cells assessed as induction of intracellular Ca2+ levels after 90 secs by Fluo-4-dye based FLIPR assay
pEC50: −log10 of the molar value.
Listed below: pEC50 values for each entry.

Prompt line: Kindly state the measured pEC50 obtained for CCn1nc(-c2cccc3ncccc23)cc1-c1cccnn1 with 5-hydroxytryptamine receptor 2C (Homo sapiens, UniProt P28335).
Response line: 5.33 to 5.34

Prompt line: # iterate: Cn1nc(-c2cccc3ccccc23)cc1-c1cccnn1
Response line: 7.40 to 7.60

Prompt line: # iterate: O=C(c1csc(-c2cccc(Cl)c2Cl)n1)N1CCCOCC1
Response line: 6.13 to 6.49

Prompt line: # iterate: Cc1nc(-c2cccc3ccccc23)sc1C(=O)N1CCOCC1
Response line: 6.94 to 7.02

Prompt line: # iterate: Cc1nc(-c2cccc3ccccc23)sc1C(=O)N1CCCC(O)CC1 (configuration not stated)
Response line: 7.60 to 7.77

* * *

# runDescription: Ratio of drug uptake in Sprague-Dawley rat brain to plasma at 30 mg/kg, po measured at 3 hrs post dose by LC/MS-MS analysis
# Type: ADME, organism-based
# runConditions: read-out: BPR
recordedMetric: Kp at 3 h
Answer with a bare number; do not write a unit.

Prompt line: Look up Kp at 3 h for this molecule: CCn1nc(-c2cccc3cccnc23)cc1-c1ccc(N)nn1
Response line: 0.9

* * *

# assayTarget: 5-hydroxytryptamine receptor 2C (Homo sapiens) (UniProt P28335)
# runDescription: Intrinsic activity at recombinant human 5-HT2C receptor expressed in HEK293E cells assessed as induction of intracellular Ca2+ levels after 90 secs by Fluo-4-dye based FLIPR assay relative to serotonin
# Type: functional, cell-based
# runConditions: HEK293
recordedMetric: Intrinsic activity
Answer with a bare number; do not write a unit.

Prompt line: Look up Intrinsic activity for this compound: Cc1sc(-c2cccc(Cl)c2Cl)nc1C(=O)N1CCOCC1
Response line: 0.6

Prompt line: # iterate: COCCN(C)C(=O)c1sc(-c2cccc3ccccc23)nc1C
Response line: 0.9

Prompt line: # iterate: Cn1cc(-c2cccc3ccccc23)nc1C(=O)N1CCC(CO)CC1
Response line: 0.7

Prompt line: # iterate: O=C(c1csc(-c2cccc(Cl)c2Cl)n1)N1CCC(O)CC1
Response line: 0.7

Prompt line: # iterate: Cc1cn(-c2cccc3ccccc23)cc1C(=O)N1CCC(CO)CC1
Response line: 0.7

Prompt line: # iterate: CCn1nc(-c2cccc3cccnc23)cc1-c1cccnn1
Response line: 1

Hey, just so you know, these numbers are from ChEMBL document CHEMBL4011636.
